// data source = patent US20250368745A1

Biological target: T1, human IL-18BP (human, UniProt O95998 31-194)
T1 construct: UniProt printed as 095998; also called hIL-18BP
T1 sequence: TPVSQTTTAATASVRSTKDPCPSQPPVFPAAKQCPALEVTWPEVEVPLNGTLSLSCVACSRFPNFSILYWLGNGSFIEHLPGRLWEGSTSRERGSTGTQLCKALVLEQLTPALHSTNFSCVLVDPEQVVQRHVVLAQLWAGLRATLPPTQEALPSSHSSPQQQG
Assay: BLI, apparent KD
property_name: pKd
Keep it numeric: pKd is minus log10 of the concentration in mol/L.

# get_value(readout='pKd', item= SA301a LC-Y94I (antibody, V domains shown) VH: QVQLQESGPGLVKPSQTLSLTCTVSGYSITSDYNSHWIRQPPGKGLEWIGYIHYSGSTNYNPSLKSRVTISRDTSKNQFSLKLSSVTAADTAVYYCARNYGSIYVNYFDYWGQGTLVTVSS VL: EIVLTQSPATLSLSPGERATLSCSASSSVSYMYWYQQKPGQAPRPLIYRTSNLASGIPARFSGSGSGTDFTLTISSLEPEDFAVYYCQQYHSIPTFGGGTKVEIK )
8.90

Please turn your attention to the following entry.
# get_value(readout='pKd', item= SA301a LC-Q90T (antibody, name in Kabat numbering, V domains shown, IgG1 kappa) VH: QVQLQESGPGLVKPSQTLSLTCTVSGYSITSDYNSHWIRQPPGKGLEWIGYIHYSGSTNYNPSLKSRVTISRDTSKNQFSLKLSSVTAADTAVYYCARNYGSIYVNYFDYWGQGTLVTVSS VL: EIVLTQSPATLSLSPGERATLSCSASSSVSYMYWYQQKPGQAPRPLIYRTSNLASGIPARFSGSGSGTDFTLTISSLEPEDFAVYYCQTYHSYPTFGGGTKVEIK )
9.40
